Reference for the values: patent US20080090805A1

Target: native CB1 receptors (Rattus norvegicus)
Sequence (P20272 whole entry): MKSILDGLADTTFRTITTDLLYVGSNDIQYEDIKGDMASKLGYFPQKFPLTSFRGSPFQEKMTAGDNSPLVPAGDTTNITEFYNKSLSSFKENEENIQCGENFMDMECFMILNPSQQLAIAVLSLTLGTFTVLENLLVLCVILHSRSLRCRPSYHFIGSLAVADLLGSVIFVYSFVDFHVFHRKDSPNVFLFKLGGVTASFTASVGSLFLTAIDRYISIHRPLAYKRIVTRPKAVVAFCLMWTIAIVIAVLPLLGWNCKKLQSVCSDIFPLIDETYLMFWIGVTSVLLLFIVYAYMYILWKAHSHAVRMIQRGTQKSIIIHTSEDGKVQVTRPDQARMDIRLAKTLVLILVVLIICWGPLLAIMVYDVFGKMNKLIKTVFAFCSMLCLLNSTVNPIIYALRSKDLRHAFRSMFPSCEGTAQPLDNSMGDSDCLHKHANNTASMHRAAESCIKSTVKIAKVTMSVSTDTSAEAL
Experiment: CB1 receptor rat binding assay ([3H]SR141716A, rat brain membranes)
Details: rat brain membranes, [3H]SR141716A; read-out: Binding rat pKi (converted)
Could you please report measured log10(Ki) for the items listed next?
Parameter value (number): base-10 log of Ki in µM.

stdin: // log10(Ki) lookup, key: O=C(Cc1ccccc1)NNC(=O)c1ccc2c(c1)N=C(c1ccc(F)cc1)c1ccccc1S2 [drawing 1190]
stdout: -1.90

stdin: // log10(Ki) lookup, key: COCCNC(=O)c1ccc2c(c1)N=C(c1cccc(Cl)c1)c1ccccc1S2 [drawing 1461]
stdout: -1.30

stdin: // log10(Ki) lookup, key: O=C(NCCc1ccccc1)c1ccc2c(c1)N=C(c1ccccc1)c1ccccc1S2 [drawing 1332]
stdout: -1.60

stdin: // log10(Ki) lookup, key: Cc1ccsc1C1=Nc2cc(C(=O)NN3CCCCC3)ccc2Sc2ccccc21 [drawing 1182]
stdout: -1.90

stdin: // log10(Ki) lookup, key: O=C(NCCc1ccccc1)c1ccc2c(c1)N=C(c1ccc(Cl)cc1)c1ccccc1S2 [drawing 1295]
stdout: -2.60

stdin: // log10(Ki) lookup, key: Cc1ccsc1C1=Nc2cc(C(=O)NN3CCCCCC3)ccc2Sc2ccccc21 [drawing 1507]
stdout: -2.00

stdin: // log10(Ki) lookup, key: O=C(NCCc1cccc(Cl)c1)c1ccc2c(c1)N=C(c1ccccc1F)c1ccccc1S2 [drawing 1459]
stdout: -1.30

stdin: // log10(Ki) lookup, key: CCN(CCNC(=O)c1ccc2c(c1)N=C(c1cccc(Cl)c1)c1ccccc1S2)c1ccccc1 [drawing 1298]
stdout: -2.60

stdin: // log10(Ki) lookup, key: O=C(NCc1cccc(Cl)c1)c1ccc2c(c1)N=C(c1ccc(F)cc1)c1ccccc1S2(=O)=O [drawing 1408]
stdout: -2.20

stdin: // log10(Ki) lookup, key: CC(C)CNC(=O)c1ccc2c(c1)N=C(c1ccc(F)cc1)c1ccccc1S2 [drawing 1319]
stdout: -2.50

stdin: // log10(Ki) lookup, key: O=C(NCc1ccccc1)c1ccc2c(c1)N=C(c1ccc(F)cc1)c1ccccc1S2 [drawing 1409]
stdout: -2.20

stdin: // log10(Ki) lookup, key: Cc1cccc(C2=Nc3cc(C(=O)NCCC(F)(F)F)ccc3Sc3ccccc32)n1 [drawing 1308]
stdout: -1.70

stdin: // log10(Ki) lookup, key: O=C(NCc1ccc(F)cc1)c1ccc2c(c1)N=C(c1ccccc1)c1ccccc1S2 [drawing 1352]
stdout: -2.40

stdin: // log10(Ki) lookup, key: CCN(CCNC(=O)c1ccc2c(c1)N=C(c1ccc(F)cc1)c1ccccc1S2)c1ccccc1 [drawing 1297]
stdout: -2.60

stdin: // log10(Ki) lookup, key: O=C(NCCc1cccc(Cl)c1)c1ccc2c(c1)N=C(C1CCCCC1)c1ccccc1S2 [drawing 1499]
stdout: -2.00

stdin: // log10(Ki) lookup, key: CCN(CCNC(=O)c1ccc2c(c1)N=C(N1CCCCC1)c1ccccc1S2)c1ccccc1 [drawing 1439]
stdout: -2.20

stdin: // log10(Ki) lookup, key: O=C(NCc1ccccc1Cl)c1ccc2c(c1)N=C(c1ccc(F)cc1)c1ccccc1S2 [drawing 1291]
stdout: -1.70
